Reference source for all entries: patent US12447153B2

# experimental_target: ErbB2 with Exon 20 YVMA insertion (HER2-YVMA) (Homo sapiens (Human), UniProt P04626, INS775YVMA)
# Sequence (P04626 other isoform, or with tags, fused parts or gaps ins YVMA behind 775): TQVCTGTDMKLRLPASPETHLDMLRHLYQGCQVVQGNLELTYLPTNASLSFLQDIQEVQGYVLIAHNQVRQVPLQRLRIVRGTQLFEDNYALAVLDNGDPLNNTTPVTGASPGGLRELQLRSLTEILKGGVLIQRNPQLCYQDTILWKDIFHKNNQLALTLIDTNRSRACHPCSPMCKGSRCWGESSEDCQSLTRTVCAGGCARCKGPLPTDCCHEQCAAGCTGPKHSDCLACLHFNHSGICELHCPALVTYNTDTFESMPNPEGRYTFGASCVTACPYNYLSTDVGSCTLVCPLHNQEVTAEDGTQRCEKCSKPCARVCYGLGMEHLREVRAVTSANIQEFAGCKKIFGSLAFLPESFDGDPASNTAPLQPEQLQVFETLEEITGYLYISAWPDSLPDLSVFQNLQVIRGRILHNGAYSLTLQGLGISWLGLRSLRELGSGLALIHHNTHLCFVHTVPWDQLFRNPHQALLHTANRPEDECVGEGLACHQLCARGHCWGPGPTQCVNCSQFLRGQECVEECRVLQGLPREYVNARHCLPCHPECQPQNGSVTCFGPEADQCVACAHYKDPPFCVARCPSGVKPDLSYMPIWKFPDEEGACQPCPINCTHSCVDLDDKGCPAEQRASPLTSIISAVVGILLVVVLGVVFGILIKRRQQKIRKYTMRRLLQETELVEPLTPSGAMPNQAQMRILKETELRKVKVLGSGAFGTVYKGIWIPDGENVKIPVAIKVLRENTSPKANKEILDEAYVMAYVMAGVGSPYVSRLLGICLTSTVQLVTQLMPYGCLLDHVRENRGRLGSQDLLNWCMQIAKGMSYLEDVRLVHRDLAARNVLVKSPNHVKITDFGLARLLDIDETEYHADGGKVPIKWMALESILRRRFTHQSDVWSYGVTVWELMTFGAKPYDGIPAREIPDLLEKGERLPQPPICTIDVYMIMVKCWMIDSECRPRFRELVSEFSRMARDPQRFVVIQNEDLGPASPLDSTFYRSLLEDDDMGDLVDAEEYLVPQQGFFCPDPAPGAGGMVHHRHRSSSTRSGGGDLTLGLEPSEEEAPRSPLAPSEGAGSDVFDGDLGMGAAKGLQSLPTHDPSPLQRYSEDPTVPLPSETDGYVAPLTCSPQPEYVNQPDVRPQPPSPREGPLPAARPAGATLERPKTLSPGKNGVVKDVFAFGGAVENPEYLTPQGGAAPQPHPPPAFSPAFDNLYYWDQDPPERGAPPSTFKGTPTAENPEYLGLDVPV
# protocol: Cellular Phosphorylation Assay, Assay 4 (constitutive ErbB2 phosphorylation, NIH 3T3 cells)
# Assay type: cell-based
# study_conditions: cellular ErbB2 YVMA phosphorylation
# reported log10 of IC50; entries follow
property_label: log10 of IC50 (log10 of the value in nM)

> print(dat)
                                    compound  measured.number
 1  C=CC(=O)N1CCN(c2ccc3ncnc(Nc4ccc(Oc5cnc6c(c5)ncn6C)c(C)c4F)c3n2)C[C@H]1C             0.97
 2  C=CC(=O)N1C[C@H]2C[C@@H]1[C@H](c1ccc3ncnc(Nc4cc(C)c(Oc5cnc6c(c5)ncn6C)cc4F)c3n1)C2             1.56
 3  C=CC(=O)N1[C@@H]2CC[C@H]1CC(c1ccc3ncnc(Nc4ccc(Oc5ccn6ncnc6c5)c(C)c4F)c3n1)C2 (stereo partly shown)             1.35
 4  C=CC(=O)N1CC[C@H](c2ccc3ncnc(Nc4ccc(Oc5ccn6ncnc6c5)c(C)c4F)c3n2)CC1(C)C (racemic)             2.09
 5  C=CC(=O)N1CCCC(c2ccc3ncnc(Nc4ccc(Oc5cnc6c(c5)ncn6C)c(C)c4F)c3n2)CC1 (stereo not shown)             1.39
 6  C=CC(=O)N1CCN(c2ccc3ncnc(Nc4ccc(Oc5cc(F)c6c(c5)ncn6C)c(C)c4)c3n2)CC12CC2             1.04
 7  C=CC(=O)N1[C@@H]2CC[C@H]1[C@H](c1ccc3ncnc(Nc4cc(C)c(Oc5cnc6c(c5)ncn6C)cc4F)c3n1)C2             1.71
 8  C=CC(=O)N1C[C@H]2CC[C@@H]1CN2c1ccc2ncnc(Nc3cc(Cl)c(Oc4ccn5ncnc5c4)cc3F)c2n1             2.38
 9  C=CC(=O)N1C[C@H]2CC[C@@H]1CN2c1ccc2ncnc(Nc3ccc(Oc4ccn5ncnc5c4)c(Cl)c3F)c2n1             1.20
10  C=CC(=O)N1CCN(c2ccc3ncnc(Nc4cc(F)c(Oc5ccn6ncnc6c5)cc4F)c3n2)CC1(C)C             1.75
11  C=CC(=O)N1CCN(c2ccc3ncnc(Nc4cc(Cl)c(Oc5ccn6ncnc6c5)cc4F)c3n2)C[C@@H]1COC             1.19
12  C=CC(=O)N1CCN(c2ccc3ncnc(Nc4ccc(Oc5ccn6ncnc6c5)c(Cl)c4F)c3n2)C[C@@H]1C(C)C             1.33
13  C=CC(=O)N1C[C@H]2CC[C@H](c3ccc4ncnc(Nc5cc(C)c(Oc6ccn7ncnc7c6)cc5F)c4n3)[C@H]2C1             1.92

---

# experimental_target: MDR1 (P-gp) (Homo sapiens (Human), UniProt P08183)
# Sequence (P08183 whole entry): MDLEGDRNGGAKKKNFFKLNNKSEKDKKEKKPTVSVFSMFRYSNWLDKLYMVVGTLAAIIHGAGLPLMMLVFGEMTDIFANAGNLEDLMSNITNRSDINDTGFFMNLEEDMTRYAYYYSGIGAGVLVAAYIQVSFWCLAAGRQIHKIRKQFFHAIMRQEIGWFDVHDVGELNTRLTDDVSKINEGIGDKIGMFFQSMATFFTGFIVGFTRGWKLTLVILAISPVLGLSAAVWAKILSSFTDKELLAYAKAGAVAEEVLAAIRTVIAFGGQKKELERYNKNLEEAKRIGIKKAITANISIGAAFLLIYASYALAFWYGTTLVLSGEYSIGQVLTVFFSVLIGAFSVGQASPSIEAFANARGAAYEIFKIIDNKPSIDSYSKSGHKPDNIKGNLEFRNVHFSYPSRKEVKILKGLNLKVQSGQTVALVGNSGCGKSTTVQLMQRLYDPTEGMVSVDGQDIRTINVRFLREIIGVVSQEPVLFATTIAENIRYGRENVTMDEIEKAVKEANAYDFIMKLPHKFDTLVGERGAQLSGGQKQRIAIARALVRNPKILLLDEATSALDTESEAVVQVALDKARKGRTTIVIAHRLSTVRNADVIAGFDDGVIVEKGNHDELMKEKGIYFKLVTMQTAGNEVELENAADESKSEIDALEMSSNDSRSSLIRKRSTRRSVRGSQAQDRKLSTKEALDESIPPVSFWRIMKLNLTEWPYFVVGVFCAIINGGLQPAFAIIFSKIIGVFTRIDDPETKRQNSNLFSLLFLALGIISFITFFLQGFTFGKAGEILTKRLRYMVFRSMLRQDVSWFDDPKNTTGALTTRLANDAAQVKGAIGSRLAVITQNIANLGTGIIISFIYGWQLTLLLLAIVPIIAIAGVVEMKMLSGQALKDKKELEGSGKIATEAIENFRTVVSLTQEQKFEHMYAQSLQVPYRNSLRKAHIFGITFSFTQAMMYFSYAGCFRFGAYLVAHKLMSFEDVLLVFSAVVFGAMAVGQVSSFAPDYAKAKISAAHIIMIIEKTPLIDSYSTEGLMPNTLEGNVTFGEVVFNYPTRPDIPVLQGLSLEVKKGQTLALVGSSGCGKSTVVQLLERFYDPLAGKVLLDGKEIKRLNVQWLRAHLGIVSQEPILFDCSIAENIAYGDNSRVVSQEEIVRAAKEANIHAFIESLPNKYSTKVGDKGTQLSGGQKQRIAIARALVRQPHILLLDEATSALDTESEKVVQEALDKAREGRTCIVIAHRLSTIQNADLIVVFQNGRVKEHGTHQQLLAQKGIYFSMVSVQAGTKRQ
# protocol: in vitro
# study_conditions: pig, LLC-PK1
The entries below are paired with their reported efflux ratio at 2 h, 1 µM.
property_label: efflux ratio at 2 h, 1 µM

> print(dat)
                                    molecule             property.label  measured.number
 1  C=CC(=O)N1C[C@@H]2C[C@H]1C[C@H]2c1ccc2ncnc(Nc3ccc(Oc4ccc5c(c4)ncn5C)c(C)c3F)c2n1 (racemic)  efflux ratio at 2 h, 1 µM              1.1
 2  C=CC(=O)N1CC2(C1)CN(c1ccc3ncnc(Nc4ccc(Oc5ccn6ncnc6c5)c(Cl)c4F)c3n1)C2  efflux ratio at 2 h, 1 µM              1.9
 3  C=CC(=O)N1CCN(c2ccc3ncnc(Nc4cc(C)c(Oc5ccn6ncnc6c5)cc4F)c3n2)C[C@H]1CC  efflux ratio at 2 h, 1 µM              1.1
 4  C=CC(=O)N1C[C@H](c2ccc3ncnc(Nc4ccc(Oc5ccc6c(c5)ncn6C)c(C)c4F)c3n2)CCC1(C)C (racemic)  efflux ratio at 2 h, 1 µM              0.8
 5  C=CC(=O)N1C[C@H](c2ccc3ncnc(Nc4ccc(Oc5ccc6c(c5)ncn6C)c(C)c4F)c3n2)CC[C@H]1C  efflux ratio at 2 h, 1 µM                1
 6  C=CC(=O)N1CCC(c2ccc3ncnc(Nc4ccc(Oc5ccc6c(c5)ncn6C)c(C)c4F)c3n2)CC12CC2 (stereo not drawn)  efflux ratio at 2 h, 1 µM              0.6
 7  C=CC(=O)N1CCC(Oc2ccc3ncnc(Nc4ccc(Oc5ccn6ncnc6c5)c(C)c4F)c3n2)CC1  efflux ratio at 2 h, 1 µM              2.7
 8  C=CC(=O)N1CCN(c2ccc3ncnc(Nc4ccc(Oc5ccn6ncnc6c5)c(Cl)c4F)c3n2)C[C@@H]1C1CC1  efflux ratio at 2 h, 1 µM                1
 9  C=CC(=O)N1CCC[C@@H](c2ccc3ncnc(Nc4ccc(Oc5ccc6c(c5)ncn6C)c(C)c4F)c3n2)CC1 (racemic)  efflux ratio at 2 h, 1 µM              2.9
10  C=CC(=O)N1C[C@H]2C[C@@H]1[C@H](c1ccc3ncnc(Nc4ccc(Oc5ccn6ncnc6c5)c(Cl)c4F)c3n1)C2  efflux ratio at 2 h, 1 µM              0.9
11  C=CC(=O)N1[C@H](C)CN(c2ccc3ncnc(Nc4ccc(Oc5cnc6c(c5)ncn6C)c(C)c4F)c3n2)C[C@@H]1C  efflux ratio at 2 h, 1 µM                1
12  C=CC(=O)N1CCN(c2ccc3ncnc(Nc4ccc(Oc5ccn6ncnc6c5)c(C)c4F)c3n2)CC1(C)C  efflux ratio at 2 h, 1 µM              1.3
13  C=CC(=O)N1CCC(Oc2nc3c(Nc4ccc(Oc5ccn6ncnc6c5)c(Cl)c4F)ncnc3cc2OC)CC1  efflux ratio at 2 h, 1 µM              2.3
14  C=CC(=O)N1C[C@H](c2ccc3ncnc(Nc4ccc(Oc5ccc6c(c5)ncn6C)c(C)c4F)c3n2)C[C@H]1C  efflux ratio at 2 h, 1 µM              0.7
15  C=CC(=O)N1[C@@H]2CC[C@H]1CC(c1ccc3ncnc(Nc4ccc(Oc5ccn6ncnc6c5)c(C)c4F)c3n1)C2 (stereo partly drawn)  efflux ratio at 2 h, 1 µM              1.1
16  C=CC(=O)N1CCN(c2ccc3ncnc(Nc4ccc(Oc5ccn6ncnc6c5)c(C)c4F)c3n2)CC1  efflux ratio at 2 h, 1 µM              1.8
17  C=CC(=O)N1C[C@@H]2C[C@H]1CN2c1ccc2ncnc(Nc3ccc(Oc4ccc5c(c4)ncn5C)c(C)c3F)c2n1  efflux ratio at 2 h, 1 µM              1.9
18  C=CC(=O)N1CC2CCC(C1)N2c1ccc2ncnc(Nc3cc(C)c(Oc4ccn5ncnc5c4)cc3F)c2n1  efflux ratio at 2 h, 1 µM              0.8
19  C=CC(=O)N1CCN(c2ccc3ncnc(Nc4ccc(Oc5cnc6c(c5)ncn6C)c(Cl)c4F)c3n2)CC1(C)C  efflux ratio at 2 h, 1 µM              1.8
20  C=CC(=O)N1CCC(Oc2ccc3ncnc(Nc4ccc(Oc5ccn6ccnc6c5)c(C)c4)c3n2)CC1  efflux ratio at 2 h, 1 µM             10.2
21  C=CC(=O)N1CCN(c2ccc3ncnc(Nc4cc(C)c(Oc5ccn6ncnc6c5)cc4F)c3n2)C[C@@H]1CC  efflux ratio at 2 h, 1 µM              1.5
22  C=CC(=O)N1C[C@H]2C[C@@H]1[C@H](c1ccc3ncnc(Nc4ccc(Oc5ccc6c(c5)ncn6C)c(C)c4F)c3n1)C2 (racemic)  efflux ratio at 2 h, 1 µM              1.2
23  C=CC(=O)N1CCC12CN(c1ccc3ncnc(Nc4cc(C)c(Oc5ccn6ncnc6c5)cc4F)c3n1)C2  efflux ratio at 2 h, 1 µM              2.9
24  C=CC(=O)N1CCCC(c2ccc3ncnc(Nc4ccc(Oc5ccc6c(c5)ncn6C)c(C)c4)c3n2)CC1 (stereo not drawn)  efflux ratio at 2 h, 1 µM              1.9
25  C=CC(=O)N1CCC(Oc2ccc3ncnc(Nc4ccc(Oc5ccc6cn(C)nc6c5)c(C)c4F)c3n2)CC1  efflux ratio at 2 h, 1 µM              1.3
26  C=CC(=O)N1C2CC1CN(c1ccc3ncnc(Nc4ccc(Oc5ccn6ncnc6c5)c(Cl)c4F)c3n1)C2  efflux ratio at 2 h, 1 µM              2.2
27  C=CC(=O)N1C[C@@H]2C[C@H]1CN(c1ccc3ncnc(Nc4ccc(Oc5ccn6ncnc6c5)c(C)c4F)c3n1)C2  efflux ratio at 2 h, 1 µM              1.5
